# Test system: Polyketide synthase Pks13 (Mycobacterium tuberculosis (strain ATCC 25618 / H37Rv)), I6X8D2 [N1640S]
# test_protocol: Binding affinity to Mycobacterium tuberculosis Pks13-TE N1640S mutant expressed in Escherichia coli BL21(DE3) pLysS assessed as change in melting temperature at 1:5 compound to protein ratio by nanoDSF thermal stability analysis
value_type: ΔTm (°C)

COc1ccc2c(c1)oc(=O)c1c2oc2ccc(O)c(CN3CCC(F)(F)CC3)c21 ... 1.9
O=c1oc2cc(O)ccc2c2oc3ccc(O)c(CN4CC[C@H](F)C4)c3c12 ... 6.9
O=c1oc2cc(O)ccc2c2oc3ccc(O)c(CN4CCCCC4)c3c12 ... 11.4
O=c1oc2cc(O)ccc2c2oc3ccc4c(c3c12)CN(CC1CC1)CO4 ... 8.6
O=c1oc2cc(O)ccc2c2oc3ccc4c(c3c12)CN(C1CCCC1)CO4 ... 10.1
O=c1oc2cc(O)ccc2c2oc3ccc(O)c(CN4CCC(F)CC4)c3c12 ... 8.7

----------
# Tested on: Polyketide synthase Pks13 (Mycobacterium tuberculosis (strain ATCC 25618 / H37Rv)), I6X8D2 [N1640K]
# test_protocol: Binding affinity to Mycobacterium tuberculosis Pks13-TE N1640K mutant expressed in Escherichia coli BL21(DE3) pLysS assessed as change in melting temperature at 1:5 compound to protein ratio by nanoDSF thermal stability analysis
value_type: ΔTm (°C)

O=c1oc2cc(O)ccc2c2oc3ccc(O)c(CN4CCC(F)CC4)c3c12 ... 1.5
O=c1oc2cc(O)ccc2c2oc3ccc(O)c(CN4CCCCC4)c3c12 ... 0.8
O=c1oc2cc(O)ccc2c2oc3ccc4c(c3c12)CN(CC1CC1)CO4 ... 0.2
O=c1oc2cc(O)ccc2c2oc3ccc4c(c3c12)CN(C1CCCC1)CO4 ... 0.3

----------
Listed here are compounds together with their documented ΔTm.
# Test system: Polyketide synthase Pks13 (Mycobacterium tuberculosis (strain ATCC 25618 / H37Rv)), I6X8D2 [N1640K]
# test_protocol: Binding affinity to Mycobacterium tuberculosis Pks13-TE N1640K mutant expressed in Escherichia coli BL21(DE3) pLysS assessed as change in melting temperature at 1:10 compound to protein ratio by nanoDSF thermal stability analysis
value_type: ΔTm (°C)

O=c1oc2cc(O)ccc2c2oc3ccc(O)c(CN4CCCCC4)c3c12 ... 0.9
O=c1oc2cc(O)ccc2c2oc3ccc(O)c(CN4CCC(F)CC4)c3c12 ... 1
O=c1oc2cc(O)ccc2c2oc3ccc4c(c3c12)CN(C1CCCC1)CO4 ... 0.1
O=c1oc2cc(O)ccc2c2oc3ccc4c(c3c12)CN(CC1CC1)CO4 ... 0.1
